# assayed_target: human cannabinoid CB2 receptor (Homo sapiens, UniProt P34972)
# Construct: expressed in transfected cells; host or cells: Saccharomyces cerevisiae strain MMY23 (expresses a chimeric Gpa1/human Galpha-i3 G-protein alpha subunit)
# Sequence (P34972 whole entry): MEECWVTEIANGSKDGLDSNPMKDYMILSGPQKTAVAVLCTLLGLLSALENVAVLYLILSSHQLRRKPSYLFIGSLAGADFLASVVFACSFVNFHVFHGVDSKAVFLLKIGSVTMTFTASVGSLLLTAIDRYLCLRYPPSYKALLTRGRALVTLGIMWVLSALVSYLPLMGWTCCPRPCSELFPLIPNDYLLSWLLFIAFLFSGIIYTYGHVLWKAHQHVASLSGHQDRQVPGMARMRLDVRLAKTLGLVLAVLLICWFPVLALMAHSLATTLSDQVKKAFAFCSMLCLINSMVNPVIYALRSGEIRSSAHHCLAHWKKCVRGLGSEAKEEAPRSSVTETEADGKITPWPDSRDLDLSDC
# assay_method_text: Cannabinoid CB2 receptor agonist activity, yeast reporter assay
# Assay type: cell-based
pEC50: −log10 of the molar value. Where a name gives a salt, the structure may show the parent alone.
reported_property: pEC50

> print(dat)
                                    molecule  recorded.value
 1  O=C(NCc1ccc(F)cc1)c1cnc(Nc2cc(Cl)cc(Cl)c2)nc1C(F)(F)F    6.00 to 7.70
 2  CN(Cc1ccccc1)C(=O)c1cnc(Nc2cccc(Cl)c2)nc1C(F)(F)F    6.00 to 7.70
 3  N#Cc1ccc(CNC(=O)c2cnc(Nc3cccc(Br)c3)nc2C(F)(F)F)cc1          < 6.00
 4  O=C(NCc1ccccc1)c1cnc(Nc2ccc(Cl)c(Cl)c2)nc1C(F)(F)F    6.00 to 7.70
 5  COc1ccc(Nc2ncc(C(=O)N(C)Cc3ccccc3)c(C(F)(F)F)n2)cc1          < 6.00
 6  COc1ccc(CNC(=O)c2cnc(Nc3cccc(Cl)c3)nc2C(F)(F)F)cc1    6.00 to 7.70
 7  N#Cc1ccc(CNC(=O)c2cnc(Nc3cc(Cl)ccc3Cl)nc2C(F)(F)F)cc1          < 6.00
 8  Cc1cc(CNC(=O)c2cnc(Nc3cccc(Cl)c3)nc2C(F)(F)F)ccn1 [Example 28, hydrochloride]    6.00 to 7.70
 9  O=C(NCc1ccc(F)cc1)c1cnc(Nc2ccc(F)c(Cl)c2)nc1C(F)(F)F    6.00 to 7.70
10  O=C(NCc1ccccc1)c1cnc(Nc2cccc(Cl)c2)nc1C(F)(F)F    6.00 to 7.70

Exam item: Return pEC50 measured with human cannabinoid CB2 receptor (Homo sapiens, UniProt P34972) given this molecule: "O=C(NCc1ccccc1Cl)c1cnc(Nc2cccc(Cl)c2)nc1C(F)(F)F"
Marked response: < 6.00

Exam item: What do you get for "CN(Cc1ccccc1)C(=O)c1cnc(Nc2cccc(Br)c2)nc1C(F)(F)F" ?
Marked response: 6.00 to 7.70

Hello, the source for this data is patent US20060247261A1, in case you need it.
